Attribute: % inhibition
system: human PKK mRNA; assay: Antisense inhibition of human PKK mRNA in HepaRG cells, 1,000 nM, MOE/deoxy/cEt oligonucleotides (Example 3); type: cell-based; conditions: Table 27; HepaRG cells, 1,000 nM antisense oligonucleotide; human PKK mRNA
Strand notation (5' to 3'): a small letter for the sugar, then the base; units joined by * are phosphorothioate-linked, units joined directly phosphodiester-linked; [ ] holds rarer units or linkages, { } end groups; capitals alone tell only the bases. e = 2'-O-(2-methoxyethyl) (MOE); k = constrained ethyl (cEt); [5mC] = 5-methylcytosine; d = 2'-deoxy (DNA)

>  <Substance>
548306 (eA*eT*kG*dT*dG*dA*d[5mC]*dA*dG*dT*d[5mC]*dA*dG*kG*kG*eA; antisense) [compound 548306]

>  <% inhibition / %>
8

$$$$
>  <Substance>
548316 (e[5mC]*eT*kG*dT*dT*d[5mC]*dA*dG*dG*dT*dA*dG*d[5mC]*kA*k[5mC]*eA; antisense) [compound 548316]

>  <% inhibition / %>
64

$$$$
>  <Substance>
548319 (e[5mC]*e[5mC]*kT*d[5mC]*dA*dT*d[5mC]*dT*d[5mC]*dA*dG*dT*dA*kT*kG*eA; antisense) [compound 548319]

>  <% inhibition / %>
26

$$$$
>  <Substance>
548337 (antisense eT*eA*k[5mC]*d[5mC]*dG*d[5mC]*dT*dG*dG*dG*dT*dG*d[5mC]*kG*kG*eT) [compound 548337]

>  <% inhibition / %>
10

$$$$
>  <Substance>
548366 (antisense eA*eG*k[5mC]*dA*dA*dG*d[5mC]*dT*dA*dA*dG*dT*dG*kA*kG*eT) [compound 548366]

>  <% inhibition / %>
5

$$$$
>  <Substance>
548318 (eA*e[5mC]*kT*dG*d[5mC]*dA*d[5mC]*d[5mC]*d[5mC]*d[5mC]*dA*d[5mC]*dA*kT*kA*eT; antisense) [compound 548318]

>  <% inhibition / %>
18

$$$$
>  <Substance>
548355 (antisense eG*e[5mC]*kA*dT*d[5mC]*d[5mC]*dT*d[5mC]*d[5mC]*d[5mC]*dT*dA*dG*kT*kT*eG) [compound 548355]

>  <% inhibition / %>
47

$$$$
>  <Substance>
548346 (antisense eT*e[5mC]*k[5mC]*d[5mC]*d[5mC]*dA*dA*dT*dA*d[5mC]*dT*dT*dG*k[5mC]*kT*eG) [compound 548346]

>  <% inhibition / %>
35

$$$$
>  <Substance>
548347 (antisense eG*e[5mC]*kT*dG*dT*dT*d[5mC]*dT*dA*dA*dG*d[5mC]*dG*kA*kG*eA) [compound 548347]

>  <% inhibition / %>
31

$$$$
>  <Substance>
531231 (eT*eA*eT*e[5mC]*eA*d[5mC]*dT*dG*dT*dA*d[5mC]*dT*dA*dG*dT*eT*eT*e[5mC]*e[5mC]*eT) [compound 531231]

>  <% inhibition / %>
72

$$$$
>  <Substance>
548338 (antisense eA*eT*kG*dA*dA*dA*d[5mC]*dT*dG*dT*dG*dG*d[5mC]*kT*k[5mC]*eG) [compound 548338]

>  <% inhibition / %>
80

$$$$
>  <Substance>
548310 (eG*eA*kG*dG*dA*dG*dT*dT*dG*dG*dT*dT*dT*kA*kG*eT; antisense) [compound 548310]

>  <% inhibition / %>
0

$$$$
